assay: reduced ATP signal of yeast carrying P. falciparum Hsp90 – S. cerevisiae, BacTiter-Glo luminescence, single point, set 2, antimalarial PfHsp90 inhibitor project, primary screen (AID 504621);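 further: yeast relying on Plasmodium falciparum Hsp90 in place of its own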; settings: S. cerevisiae expressing PfHsp90, growth, 48 h, at 9.4 µM, yeast lacking PDR1 and PDR3 efflux regulators
Hit rate of the full screen: of about 310,000 compounds, about 970 (0.31%) were called active.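 How the source made its calls: active means every replicate shows inhibition above about 80%, whatever the replicate mean (limit read from the data); inconclusive means mean inhibition reaches the set limit but some replicate falls short; inactive means the rest.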 The entries come from a sample that favours actives as a whole.
Outcomes: t (active), f (inactive)

> print(dat)
                                    compound  class.label
 1     COc1ccc(CNCCCNCc2ccc(OC)c(OC)c2)cc1OC            f
 2  COc1ccc2c(c1)C(=O)CC(c1ccccc1)O2 (stereo not drawn)            f
 3  COc1ccc2c(c1)c(=Cc1ccc(N(C)C)cc1)c1cc(-c3ccccc3)[n+](C)n12            t
 4   COc1cccc(/C=N/Nc2ncc(C(F)(F)F)cc2Cl)c1O            t
 5  O=C(CC(n1cncn1)C(Cl)(Cl)Cl)c1ccc([N+](=O)[O-])cc1 (stereo not drawn)            t
 6  O=C(Nc1ccccc1Cl)/C(Cl)=C(\Cl)S(=O)c1ccccc1 (stereo not drawn)            t
 7         COc1ccc(OCc2cn3c(C)cc(C)nc3n2)cc1            f
 8  O=c1nc2s/c(=C\c3ccco3)c(=O)n2nc1Cc1ccccc1            t
 9    CCOc1ccc(C(C)C)cc1S(=O)(=O)n1nc(C)cc1C            f
10  CC(=O)OCC1(O)CC23CCC4c5ccoc5CCC4(C)C2CCC1C3 (stereo not drawn)            f
11  O=C(Nc1ccc(S(=O)(=O)N2CCOCC2)cc1)C1CCN(S(=O)(=O)c2ccc(Cl)cc2)CC1            f
12          Cc1ccc(OCCCn2c(=O)oc3ccccc32)cc1            f
13  COC(=O)c1ccc(COc2ccc(/C=C/C(=O)c3ccc(OC)c(CSCC(=O)O)c3)cc2OC)cc1            f
14  Cc1nc2nc(SCC(=O)NCc3ccco3)nn2c(C)c1Cc1ccccc1            f
15  CCCCNC(=O)C(C)N(CCN(C)C)C(=O)CCCCCN1C(=O)NC(c2ccc(Cl)cc2)C(C(=O)OCc2ccccc2)=C1C (stereo not drawn)            f
16  Cc1cc([N+](=O)[O-])ccc1NS(=O)(=O)c1ccccc1            f
17   CN(C)S(=O)(=O)Oc1ccccc1C(=O)Nc1ccccc1Cl            f
18  COc1ccc(C(=O)/C=C/c2ccc(-c3ccccc3)cc2)cc1CSCC(=O)O            t
19  COc1ccc(CCC(=O)Nc2ccc(Cl)c(S(=O)(=O)N3CCOCC3)c2)cc1OC            f
20      O=S(=O)(Cc1ccc(Cl)cc1Cl)c1ccc(Cl)cc1            f
21  O=C(Cc1ccccc1)n1nc(-c2ccccc2)nc1NCc1ccco1            f
22          O=S(=O)(Nc1ccc2ccccc2c1)N1CCCCC1            f
23  CSCCC(NC(=O)COc1ccccc1)C(=O)N1CCN(c2cccc(C(F)(F)F)c2)CC1 (stereo not drawn)            f
24  Oc1ccccc1C1=NN(c2ccccc2)C(c2ccccc2)C1 (stereo not drawn)            t
25  COC[C@@H]1NS(=O)(=O)c2ccc(Br)cc2O[C@H]1c1ccccc1            f
26  Cc1cccc(C)c1NC(=O)C(Cl)C(=O)c1ccccc1 (stereo not drawn)            t
27      O=C(NN=Cc1ccc([N+](=O)[O-])cc1)C1CC1            f
28  O=[N+]([O-])c1ccc(C=NN=Cc2ccc([N+](=O)[O-])cc2)cc1            f
29  O=C(c1ccccc1)N1N=C(c2ccccc2O)CC1c1ccc(Br)cc1 (stereo not drawn)            f
30            Cc1c[n+]([O-])ccc1[N+](=O)[O-]            f
31  O=C(Nc1ccn(CCCNCc2ccc3[nH]ccc3c2)c(=O)n1)OCc1ccccc1            f
32  O=C(Nc1ccccc1Cl)O/N=C(/c1ccccc1)c1ccccn1            f
33  O=C(O)c1ccc(NN=CC2=C(N3CCOCC3)/C(=C/c3ccccc3)CC2)cc1            f
34  CCCCCCCCCCOC(=O)Cn1c(COc2cccc(OC)c2)[n+](C)c2ccccc21            f
35  COc1cccc(/C=N/Nc2cc(C)nc(-c3ccccc3O)n2)c1O            f
36  COc1ccc2sc(-c3ccc(N(C)C)cc3)c(-c3ccc4cc[nH]c4c3)c2c1            f
37  Cc1cc(OCCCC(=O)Nc2cc(S(=O)(=O)N3CCOCC3)ccc2N2CCOCC2)ccc1Cl            f
38  COc1ccc(C2=Nn3c(nnc3-c3ccccc3OC)SC2)cc1OC1CCCC1            f
39  Cc1cccc(-c2oc3ccc(-c4ccc5c(c4)OCO5)cc3c2C#Cc2cncn2C)c1            f
40  CCCCCCCCCCOC(=O)Cn1c(COc2ccc(C)cc2)[n+](C)c2ccccc21            t
41  Cc1ccccc1NCC(=O)N/N=C\c1ccc([N+](=O)[O-])s1            f
42  CC1=CC(=NNS(=O)(=O)c2ccc([N+](=O)[O-])cc2)CC(C)(C)C1            f
43  Cc1c(NS(=O)(=O)c2cccc(C(=O)Nc3ccc(SC(F)F)cc3)c2)c(=O)n(-c2ccccc2)n1C            f
